- Tested on: 616215-338-R-J1-PDC tumor spheroids, viability;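 note: spheroids exposed to agents for 7 days before readout; percent viability relative to DMSO vehicle control wells taken as 100%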
- assayOverview: Anticancer human tumor 616215-338-R-J1-PDC patient-derived colon adenocarcinoma cell line growth inhibition [GQUAD]
- testParameters: second compound 1 µM; first compound 0.0316 µM; hits give low values; spheroids with HUVEC and MSC
- Description: DNA G-quadruplex Stabilizer Agents in Combinations in Complex Spheroids A high-throughput screen of multi-cell type tumor spheroids was designed to identify active combinations of DNA G-quadruplex stabilizer agents and targeted small molecules. […] Compounds. […] If the clinical Cmax for an agent had not been determined, the highest concentration tested was 10 microM. […]
// returns 0 (no) unless viability, T/C is strictly below 90%, in which case 1 (yes)

Would you please look over these solved cases?
compound	labelClass
Cc1[nH]c2ccccc2c1CCNCc1ccc(/C=C/C(=O)NO)cc1 + CN(C)c1ccc(Nc2c3ccc(NC(=O)CCN4CCCC4)cc3nc3cc(NC(=O)CCN4CCCC4)ccc23)cc1	1 (yes)
C=CC(=O)N1CCN(c2nc(=O)n(-c3c(C)ccnc3C(C)C)c3nc(-c4c(O)cccc4F)c(F)cc23)C(C)C1 (stereo unspecified) + Cc1[nH]c2ccc(F)cc2c1-c1nc2c3cccnc3c3ncccc3c2[nH]1	0 (no)
O=C(c1cc(Cc2n[nH]c(=O)c3ccccc23)ccc1F)N1CCN(C(=O)C2CC2)CC1 + Cc1cnc(CNC(=O)c2c(=O)c3ccc(N4CCCN(C)CC4)nc3n3c2sc2ccccc23)cn1	1 (yes)
C#Cc1c(F)ccc2cc(O)cc(-c3ncc4c(N5CC6CCC(C5)N6)nc(OCC56CCCN5CC(F)C6)nc4c3F)c12 (stereo unspecified) + Cc1cnc(CNC(=O)c2c(=O)c3ccc(N4CCCN(C)CC4)nc3n3c2sc2ccccc23)cn1	1 (yes)
CCc1c2c(nc3ccc(O)cc13)-c1cc3c(c(=O)n1C2)COC(=O)[C@]3(O)CC + Cc1cnc(CNC(=O)c2c(=O)c3ccc(N4CCCN(C)CC4)nc3n3c2sc2ccccc23)cn1	1 (yes)
O=C(NO)c1cnc(N2CCN(S(=O)(=O)c3ccc4ccccc4c3)CC2)nc1 + CN(C)c1ccc(Nc2c3ccc(NC(=O)CCN4CCCC4)cc3nc3cc(NC(=O)CCN4CCCC4)ccc23)cc1	0 (no)

Input: Here's an entry: CC1COCCN1c1cc(C2(S(C)(=N)=O)CC2)nc(-c2ccnc3[nH]ccc23)n1 (stereo unspecified) + CN(C)c1ccc(Nc2c3ccc(NC(=O)CCN4CCCC4)cc3nc3cc(NC(=O)CCN4CCCC4)ccc23)cc1 . Is its viability, T/C below 90%?
Output: 0 (no)

Input: Here's an entry: Cc1cccc(N(C)C(=O)C2C(O)CCN2c2nc(C)cc(C(F)(F)F)c2C#N)c1 (stereo unspecified) + Cc1[nH]c2ccc(F)cc2c1-c1nc2c3cccnc3c3ncccc3c2[nH]1 . Is its viability, T/C below 90%?
Output: 0 (no)

Input: Here's an entry: CC1COCCN1c1cc(C2(O)CC3CCC(C2)O3)c2cnn(-c3ccn[nH]3)c2n1 (stereo unspecified) + CN(C)c1ccc(Nc2c3ccc(NC(=O)CCN4CCCC4)cc3nc3cc(NC(=O)CCN4CCCC4)ccc23)cc1 . Is its viability, T/C below 90%?
Output: 0 (no)

Input: Here's an entry: CC(C)(O)C1CCC(Nc2ccc3ncc(-c4cccc(C(F)(F)F)c4)n3n2)CC1 (stereo unspecified) + Cc1cnc(CNC(=O)c2c(=O)c3ccc(N4CCCN(C)CC4)nc3n3c2sc2ccccc23)cn1 . Is its viability, T/C below 90%?
Output: 1 (yes)

Input: Here's an entry: CCCS(=O)(=O)Nc1ccc(F)c(C(=O)c2c[nH]c3ncc(-c4ccc(Cl)cc4)cc23)c1F + Cc1[nH]c2ccc(F)cc2c1-c1nc2c3cccnc3c3ncccc3c2[nH]1 . Is its viability, T/C below 90%?
Output: 0 (no)
